Data provenance is ChEMBL document CHEMBL5500376.

assay: Cytotoxicity against human KBV cells assessed as cell survival at 10 uM measured after 72 hrs incubation by MTT assay relative to control; assay type: functional; details: read-out: Activity
readout: viability at 10 µM (%)
Answer format: numeric, % implied, no suffix.

Input CC1(C(=O)N[C@H]2CC[C@]3(C)[C@H]4C[C@@H](O)[C@@H]5[C@@H]([C@]6(C)CC[C@H](C(C)(C)O)O6)CC[C@@]5(C)[C@]4(C)CC[C@H]3C2(C)C)COC1 . Output viability at 10 µM: 84

Input CC(C)(O)[C@H]1CC[C@@](C)([C@H]2CC[C@]3(C)[C@@H]2[C@H](O)C[C@@H]2[C@@]4(C)CC[C@H](NC(=O)[C@@H]5CCC(=O)O5)C(C)(C)[C@@H]4CC[C@]23C)O1 . Output viability at 10 µM: 104

###

assay: Cytotoxicity against human HK-2 cells assessed as cell survival measured after 72 hrs incubation by MTT assay; assay type: toxicity, cell-based; conditions: read-out: IC50
Attribute: IC50 at 72 h
Answer format: numeric, µM implied, no suffix.

- structureNotation: "COc1cc2c(cc1OC)CN(CCc1ccc(NC(=O)c3cc(OC)c(OC)cc3NC(=O)c3cnc4ccccc4c3)cc1)CC2"
  reading: 8.03

Consider the record given below.
Input CC(C)(C)OC(=O)N1CC(CC(=O)N[C@H]2CC[C@]3(C)[C@H]4C[C@@H](O)[C@@H]5[C@@H]([C@]6(C)CC[C@H](C(C)(C)O)O6)CC[C@@]5(C)[C@]4(C)CC[C@H]3C2(C)C)C1 . Output IC50 at 72 h: 63.1

###

assay: Cytotoxicity against human KBV cells assessed as cell survival at 10 uM measured after 72 hrs incubation by MTT assay relative to control; format: functional; conditions: read-out: Activity
readout: viability at 10 µM

Input CC(C)(O)[C@H]1CC[C@@](C)([C@H]2CC[C@]3(C)[C@@H]2[C@H](O)C[C@@H]2[C@@]4(C)CC[C@H](NC(=O)[C@H]5CCCCN5)C(C)(C)[C@@H]4CC[C@]23C)O1 . Output viability at 10 µM: 99%

Input CC(C)(O)[C@H]1CC[C@@](C)([C@H]2CC[C@]3(C)[C@@H]2[C@H](O)C[C@@H]2[C@@]4(C)CC[C@H](NC(=O)[C@H]5CCC(=O)N5)C(C)(C)[C@@H]4CC[C@]23C)O1 . Output viability at 10 µM: 92%

Input C[S+](C)[O-] [DIMETHYL SULFOXIDE] . Output viability at 10 µM: 100%

###

assay: Reversal of multi-drug resistance in human KVB cells assessed as increase in PTX-induced cytotoxicity by measuring cell survival at 5 uM measured after 72 hrs incubation in presence of 100 nM paclitaxel by MTT assay relative to control; type: functional, KBV
readout: Activity (%)
Answer format: numeric, % implied, no suffix.

Examples from the recorded data:
- compound: "CC(C)(C)OC(=O)N1CCC[C@H](C(=O)N[C@H]2CC[C@]3(C)[C@H]4C[C@@H](O)[C@@H]5[C@@H]([C@]6(C)CC[C@H](C(C)(C)O)O6)CC[C@@]5(C)[C@]4(C)CC[C@H]3C2(C)C)C1"
  Activity, %: 76
- compound: "CC(C)(O)[C@H]1CC[C@@](C)([C@H]2CC[C@]3(C)[C@@H]2[C@H](O)C[C@@H]2[C@@]4(C)CC[C@H](NC(=O)[C@H]5CCN5)C(C)(C)[C@@H]4CC[C@]23C)O1"
  Activity, %: 86
- compound: "C[S+](C)[O-] [DIMETHYL SULFOXIDE]"
  Activity, %: 100
- compound: "CC(C)(O)[C@H]1CC[C@@](C)([C@H]2CC[C@]3(C)[C@@H]2[C@H](O)C[C@@H]2[C@@]4(C)CC[C@H](NC(=O)[C@@H]5CCNC5)C(C)(C)[C@@H]4CC[C@]23C)O1"
  Activity, %: 67

Consider the record given below.
Input CC(C)(O)[C@H]1CC[C@@](C)([C@H]2CC[C@]3(C)[C@@H]2[C@H](O)C[C@@H]2[C@@]4(C)CC[C@H](NC(=O)[C@@H]5CCCCN5)C(C)(C)[C@@H]4CC[C@]23C)O1 . Output Activity: 41
